tested on: windgrass (Apera spica-venti); assay: Test B postemergence plant response; format: in vivo; settings: Postemergence, 125 g ai/ha; visual rating after 13 to 15 days, scale 0 (no effect) to 100 (complete control)
Listed here: items and their measured Plant response rating, Windgrass.
MEASURED PARAMETER: Plant response rating, Windgrass

| COMPOUND | RESULT |
| --- | --- |
| CCCCn1c(CCC)ncc(C(=O)C2=C(O)CCCC2=O)c1=O [Compound 75] | 70 |
| O=C1CCCC(O)=C1C(=O)c1cnc(-c2ccccc2)n(-c2ccc(F)cc2)c1=O [Compound 24] | 60 |
| Cc1cccc(-n2c(-c3ccccc3)ncc(C(=O)C3=C(O)CCCC3=O)c2=O)c1F [Compound 58] | 60 |
| O=C1CCCC(O)=C1C(=O)c1cnc(-c2cccc(Br)c2)n(-c2ccccc2)c1=O [Compound 69] | 80 |
| O=C1CCCC(O)=C1C(=O)c1cnc(-c2ccc(Br)cc2)n(-c2ccccc2)c1=O [Compound 70] | 90 |
